system: L929 cells; test: L929 cell necroptosis assay (same protocol as the HT29 cell assay); format: cell-based, mouse; conditions: Mus musculus, values in nM
property.name: IC50
Give the figure together with its unit, number first.

Guide cases for IC50, answers given:
molecule	IC50
CC(=O)Nc1nc2ccc(-c3ccc(C)c(NC(=O)OC4CCCCC4)n3)cc2s1 [Compound A56]	500 nM
Cc1ncc(-c2ccc3nc(NC(=O)C4CC4)sc3c2)cc1NC(=O)OC1CCCCC1 [Compound A61]	3 nM

Q) // lookup IC50 for CCc1ncc(-c2ccc3nc(NC(C)=O)sc3c2)cc1NC(=O)OC1CCCCC1 [Compound A54]
A) 200 nM

Q) // lookup IC50 for CC(=O)Nc1nc2ccc(-c3cnc(C)c(NC(=O)OC4CCCCC4)c3)nc2s1 [Compound A57]
A) 30 nM

Q) // lookup IC50 for CC(=O)Nc1nc2ccc(-c3cnc(C)c(NC(=O)OC4CCCCC4)c3)cc2s1 [Compound A36]
A) 5 nM

* * *

tested on: HT29 cells; assay: HT29 cell necroptosis assay (TNF-α/Smac mimetic/z-VAD induced necrosis, viability); format: cell-based, human; details: Homo sapiens, HT-29, HT29 cells, TNF-α/Smacmimetic/z-VAD induced necrosis; values in nM
Decision: IC50 beneath 400 nM gives Condition met; IC50 meeting or exceeding 400 nM gives Condition not met.

compound	test.system	category
Cc1ncc(-c2ccc3nc(NC(=O)C4CC4)sc3c2)cc1NC(=O)OC1CCOCC1 [Compound A71]	HT29 cells	Condition met
Cc1ncc(-c2ccc3nc(NC(=O)C4CC4)sc3c2)cc1NC(=O)OC1CCCOC1 (centres unmarked) [Compound A68]	HT29 cells	Condition met
CCC(CC)OC(=O)Nc1cc(-c2ccc3nc(NC(C)=O)sc3c2)cnc1C [Compound A89]	HT29 cells	Condition met
CC(=O)Nc1nc2ccc(-c3cnc(C)c(NC(=O)NC4CCCCC4)c3)cc2s1 [Compound A49]	HT29 cells	Condition met
CC(=O)Nc1nc2ccc(-c3cnc(C)c(NC(=O)OC4CCC(F)(F)CC4)c3)cc2s1 [Compound A59]	HT29 cells	Condition not met
CC(=O)Nc1nc2ccc(-c3cnc(C)c(NC(=O)OC4CCCCCC4)c3)cc2s1 [Compound A87]	HT29 cells	Condition met
CC(=O)Nc1nc2ccc(-c3cnc(C)c(NC(=O)OC4CCC5(CC4)CC5)c3)cc2s1 [Compound A95]	HT29 cells	Condition met
CC(=O)Nc1nc2ccc(-c3cnc(C)c(NC(=O)CC4CCCCC4)c3)cc2s1 [Compound A25]	HT29 cells	Condition met
CC(=O)Nc1nc2ccc(-c3cnc(C)c(NC(=O)O[C@H]4CC[C@@H](O)CC4)c3)cc2s1 [Compound A80]	HT29 cells	Condition not met
CC(=O)Nc1cn2nc(-c3cnc(C)c(NC(=O)OC4CCCCC4)c3)ccc2n1 [Compound A65]	HT29 cells	Condition met

Q) Regarding CC(=O)Nc1nc2ccc(-c3cnc(C)c(NC(=O)OC4CCCCC4)c3)nc2s1 [Compound A57] , kindly confirm whether its IC50 is beneath 400 nM.
A) Condition met

Q) Regarding CC(=O)Nc1nc2ccc(-c3ccc(C)c(NC(=O)OC4CCCCC4)n3)cc2s1 [Compound A56] , kindly confirm whether its IC50 is beneath 400 nM.
A) Condition not met

Q) Regarding CC(=O)Nc1nc2ccc(-c3cc(NC(=O)OC4CCCCC4)c(C)nn3)cc2s1 [Compound A66] , kindly confirm whether its IC50 is beneath 400 nM.
A) Condition met

Q) Regarding CC(=O)Nc1nc2ccc(-c3cnc(C)c(NC(=O)Cc4ccccc4)c3)cc2s1 [Compound A23] , kindly confirm whether its IC50 is beneath 400 nM.
A) Condition not met

Q) Regarding CCC(C)OC(=O)Nc1cc(-c2ccc3nc(NC(C)=O)sc3c2)cnc1C (centres unmarked) [Compound A86] , kindly confirm whether its IC50 is beneath 400 nM.
A) Condition met

Q) Regarding CC(=O)Nc1nc2ccc(-c3cnc(C)c(NC(=O)OC4CCCC4)c3)cc2s1 [Compound A47] , kindly confirm whether its IC50 is beneath 400 nM.
A) Condition met

Q) Regarding CC(=O)Nc1cn2cc(-c3cnc(C)c(NC(=O)CC4CCCCC4)c3)ccc2n1 [Compound A46] , kindly confirm whether its IC50 is beneath 400 nM.
A) Condition not met

Data origin, for the record: patent US10815226B2
